measured-quantity: melting point

A selection of reference data follows.
structure-as-smiles: COc1cc2cnnc(Cl)c2cc1OC
melting point: 195 to 197 °C
//
structure-as-smiles: CCC[C@H](NC(=O)[C@H](C)N)C(=O)N[C@@H](C)P(=O)(O)O
melting point: 268 to 270 °C

Query: I'd like to know its melting point. The molecule in question is `Cc1nc(-n2ccc(NC(=O)c3ccccc3)cc2=O)sc1C(=O)NCc1ccccc1`
Response: 246 to 248 °C

----------
Hi there, I'd appreciate the recorded melting point for every entry that follows.

Example entries and their recorded answers appear below.
compound: O=C(OCc1ccccc1)[C@@H]1CCC(=O)N1C(=O)c1ccccc1
melting point: 101 °C
--
compound: COC(=O)CCCC#Cc1cc(Cl)ccc1NS(=O)(=O)c1c(C)noc1C
melting point: 107 to 109 °C
--
compound: CS(=O)(=O)N(Cc1cccnc1)c1ccc(OCC(F)(F)F)cc1
melting point: 69 to 70 °C
--
compound: CC(=O)NC1Cc2cc(CCN3CCN(c4nsc5ccccc45)CC3)ccc2C1(C)C (stereo not given)
melting point: 58 to 68 °C

Here is another compound to look at.
Query: Item `FC(F)(F)c1ccc(CC(=Nc2ccccc2)NC(=S)NCc2cccnc2)cc1` has what recorded melting point?
Response: 165 to 166 °C

Ref: a melting point compilation (Tetko et al.; mined from patent text by program, amines drawn as free bases though some values may be those of a salt)
